# Test system: Opioid receptors delta & kappa (Cavia porcellus)
# experiment_summary: Selectivity ratio between delta and kappa opioid receptor from guinea pig brain homogenate
Answer Not satisfied if Ratio is under 100, and Satisfied if it is 100 or more.

Example cases with answers are listed next.
>>> label_class("CC[C@@H](C)[C@@H](NC(=O)CNC(=O)[C@@H](N)Cc1ccc(O)cc1)C(=O)N[C@@H](Cc1ccccc1)C(=O)N[C@@H](CC(C)C)C(=O)N[C@@H](CCCN=C(N)N)C(=O)N[C@@H](CCCN=C(N)N)C(=O)N[C@H](C(=O)N[C@@H](CCCN=C(N)N)C(=O)N1CCC[C@H]1C(=O)N[C@@H](CCCCN)C(N)=O)[C@@H](C)CC")
"Satisfied"
>>> label_class("CC[C@H](C)[C@H](NC(=O)[C@H](CCCN=C(N)N)NC(=O)[C@H](CCCN=C(N)N)NC(=O)[C@H](CC(C)C)NC(=O)[C@H](Cc1ccccc1)NC(=O)[C@H](CCC(=O)O)NC(=O)CNC(=O)[C@@H](N)Cc1ccc(O)cc1)C(=O)N[C@@H](CCCN=C(N)N)C(=O)N1CCC[C@H]1C(=O)N[C@@H](CCCCN)C(N)=O")
"Not satisfied"
>>> label_class("CC[C@H](C)[C@H](NC(=O)[C@H](CCCN=C(N)N)NC(=O)[C@H](CCCN=C(N)N)NC(=O)[C@H](CC(C)C)NC(=O)[C@H](Cc1ccccc1)NC(=O)[C@H](CCCCN)NC(=O)CNC(=O)[C@@H](N)Cc1ccc(O)cc1)C(=O)N[C@@H](CCCN=C(N)N)C(=O)N1CCC[C@H]1C(=O)N[C@@H](CCCCN)C(N)=O")
"Satisfied"

Could you tell me if the measured Ratio of CC[C@H](C)[C@H](NC(=O)[C@H](CCCN=C(N)N)NC(=O)[C@H](CCCN=C(N)N)NC(=O)[C@H](CC(C)C)NC(=O)[C@H](Cc1ccccc1)NC(=O)[C@H](NC(=O)CNC(=O)[C@@H](N)Cc1ccc(O)cc1)[C@@H](C)c1ccccc1)C(=O)N[C@@H](CCCN=C(N)N)C(=O)N1CCC[C@H]1C(=O)N[C@@H](CCCCN)C(N)=O reaches 100 or more?
Satisfied

Could you tell me if the measured Ratio of CC[C@H](C)[C@H](NC(=O)[C@H](CCCN=C(N)N)NC(=O)[C@H](CCCN=C(N)N)NC(=O)[C@H](CC(C)C)NC(=O)[C@H](Cc1ccccc1)NC(=O)[C@@H](CCCCN)NC(=O)CNC(=O)[C@@H](N)Cc1ccc(O)cc1)C(=O)N[C@@H](CCCN=C(N)N)C(=O)N1CCC[C@H]1C(=O)N[C@@H](CCCCN)C(N)=O reaches 100 or more?
Not satisfied

Could you tell me if the measured Ratio of CC[C@H](C)[C@H](NC(=O)[C@H](CCCN=C(N)N)NC(=O)[C@H](CCCN=C(N)N)NC(=O)[C@H](CC(C)C)NC(=O)[C@H](Cc1ccccc1)NC(=O)[C@@H](Cc1ccccc1)NC(=O)CNC(=O)[C@@H](N)Cc1ccc(O)cc1)C(=O)N[C@@H](CCCN=C(N)N)C(=O)N1CCC[C@H]1C(=O)N[C@@H](CCCCN)C(N)=O reaches 100 or more?
Satisfied

Could you tell me if the measured Ratio of CC[C@H](C)[C@H](NC(=O)[C@H](CCCN=C(N)N)NC(=O)[C@H](CCCN=C(N)N)NC(=O)[C@H](CC(C)C)NC(=O)[C@H](Cc1ccccc1)NC(=O)[C@@H](NC(=O)CNC(=O)[C@@H](N)Cc1ccc(O)cc1)[C@@H](C)c1ccccc1)C(=O)N[C@@H](CCCN=C(N)N)C(=O)N1CCC[C@H]1C(=O)N[C@@H](CCCCN)C(N)=O reaches 100 or more?
Not satisfied

Could you tell me if the measured Ratio of CC[C@H](C)[C@H](NC(=O)[C@H](CCCN=C(N)N)NC(=O)[C@H](CCCN=C(N)N)NC(=O)[C@H](CC(C)C)NC(=O)[C@H](Cc1ccccc1)NC(=O)[C@H](Cc1ccccc1)NC(=O)CNC(=O)[C@@H](N)Cc1ccc(O)cc1)C(=O)N[C@@H](CCCN=C(N)N)C(=O)N1CCC[C@H]1C(=O)N[C@@H](CCCCN)C(N)=O reaches 100 or more?
Satisfied
